assay.readout: logP
Write the value as a bare number.

Q: Provide one value: measured logP of Cn1c(C=O)cnc1[N+](=O)[O-]
Ans: -0.1

Q: Give logP for the following compound: CCC1OC(=O)C(C)C(OC2CC(C)(OC)C(O)C(C)O2)C(C)C(OC2OC(C)C(O)C(N(C)C)C2O)C(C)(O)CC(C)C(=O)C(C)C(O)C1(C)O (centres undefined)
Ans: 1.44

Q: State its logP for this compound: CSc1nccc(=O)[nH]1
Ans: 0.22

Q: Could you please provide reported logP for COc1cc(Cc2cnc(N)nc2N)cc(OC)c1N(C)C ? Thanks!
Ans: 1.51

###

assay.readout: logP
Lab note: jot down the number only; don't add units.

Q: Consider the compound NC(=O)c1nc[nH]c1N=NN(CCO)Cc1ccccc1 . State its measured logP.
Ans: 0.99

Q: For the compound O=C(CCc1ccccc1)Nc1ccc(Cl)c(Cl)c1 , report logP.
Ans: 4.85

Q: Read off the recorded logP for O=C(O)c1ccccc1-c1ccccc1
Ans: 2.89

Q: Tell me logP reported for Cc1ccc(S(=O)(=O)Oc2ccccc2C(=O)N(C)C)cc1
Ans: 2.01

Q: For the compound CCOc1ccccc1NC(C)=O , give its measured logP value.
Ans: 1.49

Q: Give me measured logP, please, for this compound: CCC[Si](C)(C)C
Ans: 3.84

Q: Please report the measured logP for CC(=O)OC1OC(C)C(OC(C)=O)C(OC(C)=O)C1NC(=O)N(CCCl)N=O (centres undefined)
Ans: 1.32

Q: Fill in logP for record CCN(CC)Cc1ccc(C(=O)Nc2c(C)cccc2C)cc1
Ans: 3.49

Q: Respond only with logP recorded for CCC1(C)CCC(=O)NC1=O (centres undefined)
Ans: 0.23

###

Please respond with reported logP for every item in the list.
Keep it simple and answer with nothing but the number.

Q: Respond only with logP recorded for CCCC1CC(C(=O)NC(C(C)O)C2OC(SC)C(O)C(O)C2O)N(CC)C1 (stereo unspecified)
Ans: 1.02

Q: Give the reported value of logP for this record: CC(=O)NCCC(=O)N(C)c1ccc(S(=O)(=O)N(C)C)cc1
Ans: -0.35

Q: Annotate the compound CC(=O)Nc1ccc2nccnc2c1 with its measured logP.
Ans: 1

Q: Give logP for c1ccc(-c2nnco2)cc1
Ans: 1.31

Q: Give recorded logP. O=C(C=Cc1ccc2c(c1)OCO2)N1CCCCC1
Ans: 2.82

Q: Please give the documented logP of COc1cccc(OC)c1OC
Ans: 1.53

Q: Dear colleague, please send me the reported logP for Cc1cccc(C)c1NC(=O)c1ccc(CN2CCCCC2)cc1 when you can.
Ans: 3.86

Q: Quick one: give measured logP for O=S(Cc1ccccn1)c1nc2ccccc2[nH]1 (stereo unspecified)
Ans: 1.33

Q: Give recorded logP. FC(F)(F)CN(CC(F)(F)F)c1ccc(Br)cc1
Ans: 4.7

Q: Identify measured logP associated with O=C(O)c1ccccc1-c1ccccc1C(=O)O
Ans: 2.07

Q: Consider the compound CSc1ncnc2c1ccn2C1OC(CO)C(O)C1O (stereo unspecified) and give its recorded logP.
Ans: 0.09

Cited source: the OPERA property sets (Mansouri et al. 2018)
